Data provenance: patent US20230293630A1

test system: SARS-CoV-2-specific CD4+ T cells (OX40+CD137+) in PBMC; assay type: cell-based, human; settings: CD4+ T cell epitopes identified by AIM assay; total response summed over donors; further: unit not given here
Using Sum of response as the sorting value, the categories are low band: < 200; middle band: ≥ 200 and < 800; high band: ≥ 800

Look over these answered cases.
{"Primary sequence": "SLLIVNNATNVVIKV", "Assigned category": "low band"}
{"Primary sequence": "KLLKSIAATRGATVV [SEQ ID NO 258]", "Assigned category": "middle band"}
{"Primary sequence": "APHGVVFLHVTYVPA", "Assigned category": "middle band"}
{"Primary sequence": "AYSNNSIAIPTNFTI", "Assigned category": "low band"}

Please let me know in which category the item TRFQTLLALHRSYLT belongs.
high band

Please let me know in which category the item LMIERFVSLAIDAYP [SEQ ID NO 259] belongs.
high band

Please let me know in which category the item KPSKRSFIEDLLFNK belongs.
high band

Please let me know in which category the item IVRFPNITNLCPFGE belongs.
low band

Please let me know in which category the item LVYFLQSINFVRIIM [SEQ ID NO 251] belongs.
middle band

Please let me know in which category the item FTVEKGIYQTSNFRV belongs.
high band
